Values compiled from PubChem BioAssay.

Recorded cell count by entry
ASSAY_EXPLANATION: inhibitors of TNFa-induced NFkB p65 translocation, primary screen, imaging, HUVEC, MLSMR starter and 10KST1 sets (AID 438);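 also: compound added about 3h40 before a 20 min TNFalpha stimulation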
STUDY_CONDITIONS: HUVEC TNFa-induced p65 nuclear translocation; measured here: nuclei count (cytotoxicity indicator), at 2.08 µM
The answer should be written as a number, with no unit following it.

>  <STRUCTURE_SMILES_STRING>
CCOC(=O)c1cc2cc(OC)ccc2[nH]1

>  <cell count>
596

$$$$
>  <STRUCTURE_SMILES_STRING>
CCc1c(C)c(C#N)c2nc3ccccc3n2c1-n1nc(C)cc1C

>  <cell count>
609

$$$$

Query string: State its cell count for this compound: "Cc1nc(N2CCOCC2)c(C#N)c2c1COC(C)(C)C2"
Result string: 582
